# System: ACHN
# protocol notes: NCI tumour cell line growth inhibition, 48 h
The source made the active and inactive calls. Cut-off read from the data, not from the text of the source: active = GI50 up to about 1.1 µM and inactive = higher.
Result category, one only: y for active, n for inactive

Observe how each entry below is paired with its result.
• O=C[C@]12CC=C3OC4OC5(CCCCC5)OC4[C@H]3[C@H]1C(=O)C=CC2=O (stereo not given in full) = n
• CCC1(O)C(=O)OCc2c1cc1n(c2=O)Cc2cc3ccc(C=O)cc3nc2-1 (stereo not given) = y
• CN(C)C(=S)N/N=C(\C(=N/NC(=S)N(C)C)c1ccccn1)c1ccccn1 = n
• CC(C)[S+]1C2=C(CC(C)(C)CC2=O)[N-]c2ccccc21 (stereo not given) = n

Attention now turns to another entry.
Asked: What classification did `CC(C)Nc1[nH]c(C(=O)c2ccccc2)c(N)c1C(=S)Nc1ccccc1` end up with in this test?
Given back: n

###

# System: DMS-273
# protocol notes: NCI tumour cell line growth inhibition, 48 h
Active and inactive are the calls of the source. Rule as the data show it: active = GI50 up to about 1.1 µM and inactive = higher.
assay readout: GI50

Look over these answered cases.
• COc1ccccc1/C=C1\CCC(CN2CCOCC2)C1=O (stereo not given) = 13.6 µM (inactive)
• CC1=C(/C=C/C(C)=C/C=C/C(C)=C/C=C/C=C(C)/C=C/C=C(C)/C=C/C2=C(C)C(=O)C(O)CC2(C)C)C(C)(C)CC(O)C1=O (stereo not given) = > 100 µM (inactive)
• Cc1n[nH]c(=S)n(C)c1=S = > 100 µM (inactive)
• CCO[C@@H]1C2C=CC(C2)[C@H]1[N+](=O)[O-] (stereo not given in full) = > 100 µM (inactive)

Asked: Report measured GI50; entry is COc1ccc(N2C(=O)C3CC(c4ccc(Br)cc4)c4c([nH]c5ccccc45)C3C2=O)cc1 (stereo not given)
Given back: 6.41 µM (inactive)

###

# Test system: OVCAR-5
# protocol notes: NCI tumour cell line growth inhibition, 48 h
Calls of active or inactive are those of the source. No stated cut-off is given here; in the data, active = GI50 up to about 1.1 µM and inactive = higher. Where a SMILES comes first, the peptide text is derived from it. The star is where a group is joined. Boc = CC(C)(C)OC(=O)*
I'd be grateful if you could share measured GI50 for these entries.

// worked examples, GI50 included
- COC12C=CC(CC1)C(C)(C)C2OS(C)(=O)=O (stereo not given): > 100 µM (inactive)
- CN(Cc1cnc2nc(N)nc(N)c2n1)c1ccc(C(=O)NC(CCS(=O)(=O)O)C(=O)O)cc1 (stereo not given): 0.144 µM (active)
- c1ccc(CNc2c3c(nc4ccccc24)CCC3)cc1: 15.5 µM (inactive)
- CC(C)(C)OC(=O)NCC(=O)NCC(=O)NCC(=O)NCC(=O)O (Boc-GGGG-OH): > 100 µM (inactive)

In the following, a different compound is considered.
Asked: Return GI50 (reported value) for this compound: `Brc1ccc2[nH]cc(-c3csc(-c4c[nH]c5ccccc45)n3)c2c1`
Given back: 2.02 µM (inactive)

###

# System: NCI-H226
# protocol notes: NCI tumour cell line growth inhibition, 48 h
Active and inactive are the calls of the source. Cut-off read from the data, not from the text of the source: active = GI50 up to about 1.1 µM and inactive = higher.
Assignment: determine reported GI50 for the given compounds.

- CN(C)C(=N/O)/C(=N\O)N(C)C: 15.6 µM (inactive)
- CN1C(=O)c2ccccc2NC(=O)c2cnn(C)c21: > 100 µM (inactive)
- N#Cc1c2ccccc2c(Cc2ccc3c(c2)OCCOCCOCCOCCOCCO3)c2ccccc12: 11.9 µM (inactive)

Provide the reported GI50 of each entry below, same order.
1. CC(C)(CN1CCCCC1)C(=O)/C=C/c1ccc(/C=C/C(=O)C(C)(C)CN2CCCCC2)cc1
2. CN(C)C(=S)/N=c1\ssc(=S)n1Cc1ccncc1

Given back:
1: 1.84 µM (inactive); 2: > 100 µM (inactive)

Asked: Tell me measured GI50 for `O=c1c2cc3ccccc3n2c(=O)c2cc3ccccc3n12` please.
Given back: > 100 µM (inactive)

###

# Tested on: HT-29
# protocol notes: NCI tumour cell line growth inhibition, 48 h
Active and inactive are the calls of the source. Cut-off read from the data, not from the text of the source: active = GI50 up to about 1.1 µM and inactive = higher.
assay readout: GI50

Would you mind listing GI50 for each of the following compounds?
1. CC(=O)c1nc(C#N)c(N)o1
2. COc1cc(CC2CCc3nc(N)nc(N)c3C2)cc(OC)c1OC (centres undefined)

Given back:
1. > 100 µM (inactive)
2. > 34.8 µM (inactive)

###

# Tested on: U-251
# protocol notes: NCI tumour cell line growth inhibition, 48 h
Activity calls are given as the source filed them. Rule as the data show it: active = GI50 up to about 1.1 µM and inactive = higher.
Pick from yes = active, no = inactive when you respond.

These solved cases illustrate the format of a correct answer.
• Cc1ccc(NC(=O)/C(Cc2cc(=O)oc3cc(O)ccc23)=N\NC(C)(C)C)cc1C = no
• CN(C)CCC(/C=C/c1ccccc1)=N\Nc1ccc(Cl)cc1Cl = no
• COC(C)(C)/C=C/c1[nH]c2ccccc2c1CC(=O)NCCc1cn(C(c2ccccc2)(c2ccccc2)c2ccccc2)cn1 = no
• CCN1C(=O)C(=C/C=C/c2ccc(OC)cc2)C(=O)N(CC)C1=S = no
• Cc1nc2ccccc2c(=O)[nH]1 = no
• COc1ccc2nc3ccccc3c(NCCN(C)CCCl)c2c1 = yes
• O=C(O)COc1cc(-c2ccccc2F)nc2cc3c(cc12)OCO3 = no
• O=C(NCCNCCO)c1cccc2ccc(-c3ccccc3)nc12 = no

Asked: Dear all, I need the recorded test outcome for `O=C(O)CSc1ccn(Cc2ccccc2)c1` , thank you.
Given back: no

Asked: Call for entry `COc1c(-c2ccc3c(c2)OCO3)oc2cc(O)cc(O)c2c1=O` :
Given back: no

###

Consider the following compounds; for each one, report its GI50.
# System: UACC-257
# protocol notes: NCI tumour cell line growth inhibition, 48 h
Calls of active or inactive are those of the source. Cut-off read from the data, not from the text of the source: active = GI50 up to about 1.1 µM and inactive = higher.

Solved cases (2 shown):
* CCC(/C(=N/NC(=O)C[N+](C)(C)C)c1ccccc1)C1OC(=O)c2ccccc21 (stereo not drawn) | > 100 µM (inactive)
* COc1cc(/C=C2\CC3C4CC=C5C[C@@H](O)CC[C@]5(C)C4CC[C@]3(C)\C2=N\O)cc(OC)c1OC (stereo partly drawn) | 9.91 µM (inactive)

We next turn to a different compound, shown below.
Asked: Write down measured GI50 (UACC-257) for this compound. `O=C(CCc1nnc(S)[nH]1)NC12CC3CC(CC(C3)C1)C2`
Given back: > 100 µM (inactive)

###

# Test system: RXF 393
# protocol notes: NCI tumour cell line growth inhibition, 48 h
Calls of active or inactive are those of the source. Cut-off read from the data, not from the text of the source: active = GI50 up to about 1.1 µM and inactive = higher.
assay readout: GI50

Solved entries:
• CC(=O)OC1C2CCC3CC2C2(SCCS2)C31 (stereo not given) = > 100 µM (inactive)
• Nc1ccn(C2OC(COP(=O)(O)Oc3ccccc3)C(O)C2O)c(=O)n1 (stereo not given) = > 45.8 µM (inactive)
• O=C(CSc1nnc(-c2ccc(/N=C\c3ccc(Cl)cc3)cc2)o1)Nc1ccccc1[N+](=O)[O-] = 94.6 µM (inactive)
• CC(C)C(Nc1ncnc2nc[nH]c12)C(=O)O (stereo not given) = > 100 µM (inactive)

We next turn to a different compound, shown below.
Asked: Given `O=C1Oc2ccccc2C(=O)/C1=C/N1C(=O)/C(=C/c2ccc3c(c2)OCO3)SC1=S` , respond with its GI50.
Given back: 17.2 µM (inactive)

###

Exercise: state measured GI50 for each of the compounds provided.
# System: TK-10
# protocol notes: NCI tumour cell line growth inhibition, 48 h
The source made the active and inactive calls. Rule as the data show it: active = GI50 up to about 1.1 µM and inactive = higher.

Consider the worked cases shown below.
* COc1ccc(/C=C2\SC(c3ccc(OC)cc3)N(NC(=O)Cc3ccccc3)C2=O)cc1 (configuration not stated) | > 100 µM (inactive)
* CN(C)CCCN1c2ccccc2CCc2cc([N+](=O)[O-])ccc21 | 28.5 µM (inactive)
* CCOc1ccc(/N=N/S(=O)(=O)O)cc1 | > 100 µM (inactive)
* COc1cc(/C=C/C(=O)O)ccc1OS(=O)(=O)O | > 100 µM (inactive)
* c1ccc2c3nc(C4CCCC4)nc-3c(NC3CCCC3)[nH]c2c1 | 35.2 µM (inactive)

// each listed compound needs a value for GI50
1. COc1ccc(N2C(=O)C(=O)N(C)C2=O)c2ccccc12
2. O=S(=O)(/N=S(/Nc1ccccc1)C(Cl)Cl)c1ccccc1 (configuration not stated)
3. O=C(O)CCSc1nnc(COc2ccc(Cl)cc2)n1-c1ccccc1
4. CCOC(=O)/N=c1\ss/c(=N\C(=S)N(C)C)n1-c1ccccc1
5. C1=C(c2ccccc2)CN(c2ccccc2)OC1
6. O=C1NC(c2ccccc2Cl)Nc2ccccc21 (configuration not stated)
7. O=c1c2cc3ccccc3n2c(=O)c2cc3ccccc3n12

Given back:
1. > 10 µM (inactive)
2. > 100 µM (inactive)
3. > 100 µM (inactive)
4. 63 µM (inactive)
5. > 100 µM (inactive)
6. > 53.1 µM (inactive)
7. > 100 µM (inactive)

Please state GI50 for every compound in the list that follows.
1. CCCCCCCCCC(=O)OCC1OC(n2cc(F)c(=O)[nH]c2=O)C(NC(=O)OCc2ccccc2)C(OC(=O)CCCCCCCCC)C1O (configuration not stated)
2. COc1ccc(C2=Nn3c(nc4sc5c(c4c3=O)CCCC5)SC2)cc1
3. CC1(C)O[C@H]2OC3CCC(=O)CC3(O)[C@H]2O1 (some centres not stated)

Given back:
1. 80.9 µM (inactive)
2. 57.8 µM (inactive)
3. > 100 µM (inactive)

Measured values drawn from ChEMBL document CHEMBL1201862 for this set.
